- targetUnderTest: T1, His-tagged cynomolgus monkey TIGIT (Acro Biosystems #TIT-05223) (cynomolgus monkey, UniProt A0A7N9I9V4 89-209)
- T1 construct: Bought protein; also called cyno TIGIT; cynomolgus TIGIT; not shown: His tag
- T1 sequence (A0A7N9I9V4 entry or part of it): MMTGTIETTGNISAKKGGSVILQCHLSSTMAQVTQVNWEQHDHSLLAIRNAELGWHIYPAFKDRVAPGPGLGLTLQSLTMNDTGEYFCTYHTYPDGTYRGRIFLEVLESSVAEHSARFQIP
- measurementDescription: ELISA, coated His-TIGIT, 1 ug/ml
measurementKind: Elisa OD450 (OD450)

binder	measurementKind	unitAbbreviation	endpointResult
43586p2.A03 (scFv, V domains shown) VH: EVQLLESGGGLVQPGGSLRLSCAASGFTFTSYAMSWVRQAPGKGLEWVAGISYIGRNEYYADSVKGRLTISRDNSKNTLYLQMNNLRAEDTAIYYCAKHLTGGTTDYYYYGMDVWGQGTTVTVSS VL: QSVLTQPPSASGTPGQRVTISCSGSTSNIGTSRYVHWYQQLPGTAPKLLIYFDSQRPSGVPDRFSASKSGTSASLAISGLQSEDEADYYCATWDDSLSAWVFGGGTKLTVL	Elisa OD450	OD450	1.41
43586p2.C09 (scFv, V domains shown) VH: EVQLLESGGGLVQPGGSLRLSCTASGFTFTSYAMSWVSQAPGKGLEWVAGISYDGSIKYYADSVKGRLTISRDNSKNTLYLQMNSLRAEDTAIYYCAKHLTGGTTDYYYYAMDVWGQGTTVTVSS VL: QSVLTQPPSASGTPGQRVTISCSGSTSNIGTNRYVHWYQQFPGTAPKLLIYGTDRRPSGVSDRFSGSKSGTSASLAISGLQSEDEADYYCAAWDDSLSAWVFGGGTKLTVL	Elisa OD450	OD450	1.79
